# assay-procedure: in vitro
# condition-summary: human, Viability at 10µM (MTT viability)
Please go through the items and note down their viability at 10 µM.
Report only the number, with the unit % understood.

Request: Which value of viability at 10 µM has been reported for CCn1cc(C(=O)O)c(=O)c2ccc(/C=C/c3ccc(O)c(O)c3)nc21 [DD8] in the records?
Result: 91.5

Request: Follow-up entry: NC/C=C/c1ccc2ccccc2n1 [2NH2Q]
Result: 81

Request: Consider next the compound OC(Cc1ccc2ccccc2n1)c1ccccc1 (centres unmarked) [2QPOH] in the same way.
Result: 88.3

Request: Now try N#Cc1ccc2ccc(/C=C/c3ccc(O)c(O)c3)nc2c1O [KHD291] .
Result: 71.2

Request: Follow-up entry: O=C(O)c1ccc2ccc(/C=C/c3ccc([N+](=O)[O-])cc3)nc2c1O [FZ142]
Result: 102

Request: Again, but for CCCCCCCCC(=O)c1ccc2ccc(/C=C/c3ccc(O)c(O)c3)nc2c1O [MBN111]
Result: 42.5

Request: Another compound: Cc1ccc2ccc(Br)c(O)c2n1 [DD1]
Result: 59.7

Request: OCCCCCCCCCCCCCCCCc1ccc2ccccc2n1 [2Q16OH] ?
Result: 74

Request: Same lookup for Oc1cccc2ccc(/C=C/c3ccc4cccc(O)c4n3)nc12 [KHD288] , please.
Result: 62.7

Request: Same question, OC/C=C/c1ccc2ccccc2n1 [2OHQ] this time
Result: 31

Request: Follow-up item: O=C(CC(=O)c1ccc2ccc(C(=O)O)c(O)c2n1)c1ccccc1 [TOF411]
Result: 105
